target: Voltage-gated inwardly rectifying potassium channel KCNH2 (Homo sapiens); test: K+ channel blocking activity in human embryonic kidney cells expressing HERG Kv11.1
measurementName: IC50
Answer as a quantity: numeral, then unit.

Q: // lookup IC50 | system=Voltage-gated inwardly rectifying potassium channel KCNH2 (Homo sapiens) | key= CN(c1nccc(=O)[nH]1)C1CCN(c2nc3ccccc3n2Cc2ccc(F)cc2)CC1
Ans: 350 nM

###

# maps each entry to its IC50
target: Voltage-gated inwardly rectifying potassium channel KCNH2 (Homo sapiens, UniProt Q12809); test: K+ channel blocking activity in Chinese hamster ovary cells expressing HERG Kv11.1; assay type: functional, cell-based
Sequence (Q12809 whole entry): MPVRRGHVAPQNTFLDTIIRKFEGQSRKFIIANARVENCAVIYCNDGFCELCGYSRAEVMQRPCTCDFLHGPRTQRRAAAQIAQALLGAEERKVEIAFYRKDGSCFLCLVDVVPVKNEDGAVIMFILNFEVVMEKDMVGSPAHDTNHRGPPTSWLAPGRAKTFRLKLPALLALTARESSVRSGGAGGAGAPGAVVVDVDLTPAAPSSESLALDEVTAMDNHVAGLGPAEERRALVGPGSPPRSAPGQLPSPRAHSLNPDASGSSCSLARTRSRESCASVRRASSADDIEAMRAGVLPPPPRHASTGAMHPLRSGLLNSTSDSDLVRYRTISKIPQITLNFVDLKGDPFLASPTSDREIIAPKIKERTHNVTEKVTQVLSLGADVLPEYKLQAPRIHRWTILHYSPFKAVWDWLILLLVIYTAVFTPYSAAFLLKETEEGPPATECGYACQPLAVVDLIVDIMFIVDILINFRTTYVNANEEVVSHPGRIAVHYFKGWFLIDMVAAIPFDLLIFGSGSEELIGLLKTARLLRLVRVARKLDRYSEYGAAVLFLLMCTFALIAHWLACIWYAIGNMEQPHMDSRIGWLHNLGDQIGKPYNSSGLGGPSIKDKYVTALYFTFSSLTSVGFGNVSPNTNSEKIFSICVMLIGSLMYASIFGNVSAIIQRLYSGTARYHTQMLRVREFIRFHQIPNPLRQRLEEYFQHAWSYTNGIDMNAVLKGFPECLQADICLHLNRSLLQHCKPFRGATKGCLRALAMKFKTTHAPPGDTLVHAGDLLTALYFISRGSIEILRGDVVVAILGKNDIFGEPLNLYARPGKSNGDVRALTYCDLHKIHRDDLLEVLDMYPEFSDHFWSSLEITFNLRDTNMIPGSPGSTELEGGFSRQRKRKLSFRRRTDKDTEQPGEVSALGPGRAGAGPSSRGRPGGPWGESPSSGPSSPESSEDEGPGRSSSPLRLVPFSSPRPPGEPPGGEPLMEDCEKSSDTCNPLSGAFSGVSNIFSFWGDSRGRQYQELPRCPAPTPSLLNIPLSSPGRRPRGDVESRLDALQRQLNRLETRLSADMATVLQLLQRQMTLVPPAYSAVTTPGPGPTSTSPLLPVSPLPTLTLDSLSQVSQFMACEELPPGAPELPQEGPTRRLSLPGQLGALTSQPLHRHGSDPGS

Q: // lookup IC50 | system=Voltage-gated inwardly rectifying potassium channel KCNH2 (Homo sapiens, UniProt Q12809) | key= COc1c(N2CCNC(C)C2)c(F)cc2c(=O)c(C(=O)O)cn(C3CC3)c12 (configuration not stated) [GATIFLOXACIN]
Ans: 130 µM

Q: // lookup IC50 | system=Voltage-gated inwardly rectifying potassium channel KCNH2 (Homo sapiens, UniProt Q12809) | key= CN1CCN(CCCCN2C(=O)CN(/N=C/c3ccc(-c4ccc(Cl)cc4)o3)C2=O)CC1 [AZIMILIDE]
Ans: 0.56 µM
